- Assay setup: 298.15 K; 15000 kPa; Liquid; Vibrating tube method
Attribute measured: mass density (kg/m3)

1) CCCCO ... 816.8
2) CCCCCCCCCCO ... 834.4
3) CCCCCCCCCO ... 832.3
4) CCCCCO ... 821
5) CCO ... 797.7
6) CCCCCCCCO ... 830.7
7) CCCCCCCO ... 828.1
8) CCCCCCO ... 824.9
9) CCCO ... 811.4
10) CCCCCCCCCCCO ... 836.4

----------
- Assay setup: 298.15 K; 55000 kPa; Liquid; Vibrating tube method
Attribute measured: mass density (kg/m3)

1. CCCCCCCCCCO ... 854.7
2. CCO ... 825.4
3. CCCCO ... 840.9
4. CCCCCCCCO ... 851.7
5. CCCCCCCCCCCO ... 856.5
6. CCCCCCCCCO ... 852.9
7. CCCO ... 836.6
8. CCCCCCCO ... 849.7
9. CCCCCO ... 844
10. CCCCCCO ... 847.1

----------
- Assay setup: 278.15 K; 50000 kPa; Liquid; Vibrating tube method
Attribute measured: mass density (kg/m3)

1) CCO [ethanol] ... 836.3
2) CCCO [propan-1-ol] ... 847.1
3) CCCCO [butan-1-ol] ... 850.7
4) CCCCCCCO [heptan-1-ol] ... 859
5) CCCCCO [pentan-1-ol] ... 853.6
6) CCCCCCO [hexan-1-ol] ... 856.3
7) CCCCCCCCCO [nonan-1-ol] ... 862.2
8) CCCCCCCCO [octan-1-ol] ... 861.1

----------
- Assay setup: 348.15 K; 60000 kPa; Liquid; Vibrating tube method
Attribute measured: mass density (kg/m3)

1) CCCCO ... 811.9
2) CCCCCCCCCO ... 826.7
3) CCCCCCO ... 819.7
4) CCO ... 793.8
5) CCCCCCCCCCO ... 829
6) CCCCCCCCO ... 825.5
7) CCCCCCCCCCCO ... 830.7
8) CCCO ... 806.5
9) CCCCCCCO ... 822.8
10) CCCCCO ... 816.2

----------
- Assay setup: 288.15 K; 35000 kPa; Liquid; Vibrating tube method
Attribute measured: mass density (kg/m3)

1. CCO [ethanol] ... 819.9
2. CCCCCCCO [heptan-1-ol] ... 845.7
3. CCCCO [butan-1-ol] ... 836.2
4. CCCCCCO [hexan-1-ol] ... 842.9
5. CCCCCO [pentan-1-ol] ... 839.7
6. CCCO [propan-1-ol] ... 831.8
7. CCCCCCCCCCO [decan-1-ol] ... 851.1
8. CCCCCCCCO [octan-1-ol] ... 848
9. CCCCCCCCCO [nonan-1-ol] ... 849.1

----------
- Assay setup: 278.15 K; 40000 kPa; Liquid; Vibrating tube method
Attribute measured: mass density (kg/m3)

1. CCCCO ... 845.4
2. CCCCCCCO ... 854.2
3. CCCCCCCCO ... 856.4
4. CCCCCO ... 848.6
5. CCCO ... 841.5
6. CCO ... 830.3
7. CCCCCCCCCO ... 857.6
8. CCCCCCO ... 851.4
